# Test system: 935938-334-R-J1-PDC complex spheroid viability
# TEST_NAME: Anticancer human tumor 935938-334-R-J1-PDC patient-derived small intestine adenocarcinoma cell line growth inhibition [POLQ]
# DETAILS: second compound 0.1 µM; first compound 0.316 µM; hits give low values
# Description: Multicellular complex tumor spheroid response to Polymerase (POL) inhibitors (novobiocin, ART-558, RP6685) in combination with a variety of drugs and investigational agents in selected tumor cell lines The POL inhibitors (novobiocin, ART-558, and RP6685) were evaluated both individually and in combination with standard of care and investigational anticancer small molecules within a complex spheroid model of solid tumors. . […]
QUANTITY: viability, T/C (%)

>>> reported_value("Nc1ccn(C2OC(CO)C(O)C2(F)F)c(=O)n1 (stereo not given) + Cc1cccc(N(C)C(=O)C2C(O)CCN2c2nc(C)cc(C(F)(F)F)c2C#N)c1")
21.4
>>> reported_value("CNCc1ccc(-c2[nH]c3cc(F)cc4c3c2CCNC4=O)cc1 + COC1C(OC(N)=O)C(O)C(Oc2ccc3c(O)c(NC(=O)c4ccc(O)c(CC=C(C)C)c4)c(=O)oc3c2C)OC1(C)C")
94.9
>>> reported_value("C=CC(=O)N1CCN(c2nc(=O)n(-c3c(C)ccnc3C(C)C)c3nc(-c4c(O)cccc4F)c(F)cc23)C(C)C1 (stereo not given) + Cc1cccc(N(C)C(=O)C2C(O)CCN2c2nc(C)cc(C(F)(F)F)c2C#N)c1")
91.3
>>> reported_value("CCc1cc2c(N3CCc4c(cc(Cn5ccnc5)cc4-c4cn(C)nc4C(F)(F)F)C3=O)cc(C)nc2c(OC)n1 + Nc1ccc(C#CCN(C(=O)Cc2ncc(C(F)(F)F)cc2C(F)(F)F)c2ccc(F)cc2)nn1")
57.1
>>> reported_value("COc1cc2cc(C(=O)CCC(=O)O)sc2cc1OC + Nc1ccc(C#CCN(C(=O)Cc2ncc(C(F)(F)F)cc2C(F)(F)F)c2ccc(F)cc2)nn1")
95.5

====

# System: 935938-334-R-J1-PDC complex spheroid viability
# TEST_NAME: Anticancer human tumor 935938-334-R-J1-PDC cell line growth inhibition [POLQ];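 note: spheroids exposed to drugs for seven days before viability read; 100% = DMSO vehicle control wells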
# DETAILS: second compound 1 µM; first compound 3.16 µM; hits give low values
QUANTITY: viability, T/C (%)

>>> reported_value("C=CC(=O)N1CCN(c2nc(=O)n(-c3c(C)ccnc3C(C)C)c3nc(-c4c(O)cccc4F)c(F)cc23)C(C)C1 (stereo not drawn) + Cc1cccc(N(C)C(=O)C2C(O)CCN2c2nc(C)cc(C(F)(F)F)c2C#N)c1")
92.2
>>> reported_value("CC1COCCN1c1cc(-c2ccnn2C)c2ccnc(-c3ccn[nH]3)c2n1 (stereo not drawn) + COC1C(OC(N)=O)C(O)C(Oc2ccc3c(O)c(NC(=O)c4ccc(O)c(CC=C(C)C)c4)c(=O)oc3c2C)OC1(C)C")
14.8
>>> reported_value("CC(C)n1c(=O)n(C)c2cnc3cc(F)c(-c4ccc(OCCCN5CCCCC5)nc4)cc3c21 + COC1C(OC(N)=O)C(O)C(Oc2ccc3c(O)c(NC(=O)c4ccc(O)c(CC=C(C)C)c4)c(=O)oc3c2C)OC1(C)C")
104

====

# Test system: 935938-334-R-J1-PDC complex spheroid viability
# TEST_NAME: Anticancer human tumor 935938-334-R-J1-PDC cell line growth inhibition [POLQ];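 note: spheroids exposed to drugs for seven days before viability read; 100% = DMSO vehicle control wells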
# DETAILS: second compound 10 µM; first compound 0.0316 µM; hits give low values
Please respond with met when measured viability, T/C is strictly beneath 90%, and with not met in all other cases.

>>> qualitative_label("O=C(c1cc(Cc2n[nH]c(=O)c3ccccc23)ccc1F)N1CCN(C(=O)C2CC2)CC1 + Cc1cccc(N(C)C(=O)C2C(O)CCN2c2nc(C)cc(C(F)(F)F)c2C#N)c1")
"not met"
>>> qualitative_label("CC1COCCN1c1cc(C2(S(C)(=N)=O)CC2)nc(-c2ccnc3[nH]ccc23)n1 (stereo unspecified) + Nc1ccc(C#CCN(C(=O)Cc2ncc(C(F)(F)F)cc2C(F)(F)F)c2ccc(F)cc2)nn1")
"not met"
>>> qualitative_label("COc1cccc(OCCCN)c1-c1cc(Nc2cnc(C#N)cn2)n[nH]1 + COC1C(OC(N)=O)C(O)C(Oc2ccc3c(O)c(NC(=O)c4ccc(O)c(CC=C(C)C)c4)c(=O)oc3c2C)OC1(C)C")
"met"
>>> qualitative_label("CC[C@@]1(O)C(=O)OCc2c1cc1n(c2=O)Cc2cc3c(CN(C)C)c(O)ccc3nc2-1 + Cc1cccc(N(C)C(=O)C2C(O)CCN2c2nc(C)cc(C(F)(F)F)c2C#N)c1")
"not met"
>>> qualitative_label("CNCc1ccc(-c2[nH]c3cc(F)cc4c3c2CCNC4=O)cc1 + Nc1ccc(C#CCN(C(=O)Cc2ncc(C(F)(F)F)cc2C(F)(F)F)c2ccc(F)cc2)nn1")
"not met"
>>> qualitative_label("COc1cccc(OCCCN)c1-c1cc(Nc2cnc(C#N)cn2)n[nH]1 + Nc1ccc(C#CCN(C(=O)Cc2ncc(C(F)(F)F)cc2C(F)(F)F)c2ccc(F)cc2)nn1")
"met"
>>> qualitative_label("COc1cc2cc(C(=O)CCC(=O)O)sc2cc1OC + Nc1ccc(C#CCN(C(=O)Cc2ncc(C(F)(F)F)cc2C(F)(F)F)c2ccc(F)cc2)nn1")
"not met"
>>> qualitative_label("O=C(Nc1ccc(O)c(NS(=O)(=O)c2ccc(F)cc2)c1)c1ccc(-c2ccccc2)cc1 + Nc1ccc(C#CCN(C(=O)Cc2ncc(C(F)(F)F)cc2C(F)(F)F)c2ccc(F)cc2)nn1")
"not met"
>>> qualitative_label("COc1cc(C2c3cc4c(cc3C(OC3OC5COC(C)OC5C(O)C3O)C3COC(=O)C23)OCO4)cc(OC)c1O (stereo unspecified) + Nc1ccc(C#CCN(C(=O)Cc2ncc(C(F)(F)F)cc2C(F)(F)F)c2ccc(F)cc2)nn1")
"not met"
>>> qualitative_label("CC(C)n1c(=O)n(C)c2cnc3cc(F)c(-c4ccc(OCCCN5CCCCC5)nc4)cc3c21 + Nc1ccc(C#CCN(C(=O)Cc2ncc(C(F)(F)F)cc2C(F)(F)F)c2ccc(F)cc2)nn1")
"not met"
>>> qualitative_label("CC1COCCN1c1cc(C2(O)CC3CCC(C2)O3)c2cnn(-c3ccn[nH]3)c2n1 (stereo unspecified) + Cc1cccc(N(C)C(=O)C2C(O)CCN2c2nc(C)cc(C(F)(F)F)c2C#N)c1")
"met"
>>> qualitative_label("Cn1ncnc1[C@H]1c2n[nH]c(=O)c3cc(F)cc(c23)N[C@@H]1c1ccc(F)cc1 + COC1C(OC(N)=O)C(O)C(Oc2ccc3c(O)c(NC(=O)c4ccc(O)c(CC=C(C)C)c4)c(=O)oc3c2C)OC1(C)C")
"met"
>>> qualitative_label("CC1COCCN1c1cc(-c2ccnn2C)c2ccnc(-c3ccn[nH]3)c2n1 (stereo unspecified) + Nc1ccc(C#CCN(C(=O)Cc2ncc(C(F)(F)F)cc2C(F)(F)F)c2ccc(F)cc2)nn1")
"not met"
>>> qualitative_label("O=C(c1cc(Cc2n[nH]c(=O)c3ccccc23)ccc1F)N1CCN(C(=O)C2CC2)CC1 + Nc1ccc(C#CCN(C(=O)Cc2ncc(C(F)(F)F)cc2C(F)(F)F)c2ccc(F)cc2)nn1")
"met"
>>> qualitative_label("COc1cccc2c1C(=O)c1c(O)c3c(c(O)c1C2=O)CC(O)(C(=O)CO)CC3OC1CC(N)C(O)C(C)O1 (stereo unspecified) + COC1C(OC(N)=O)C(O)C(Oc2ccc3c(O)c(NC(=O)c4ccc(O)c(CC=C(C)C)c4)c(=O)oc3c2C)OC1(C)C")
"met"
>>> qualitative_label("CCc1c2c(nc3ccc(O)cc13)-c1cc3c(c(=O)n1C2)COC(=O)[C@]3(O)CC + COC1C(OC(N)=O)C(O)C(Oc2ccc3c(O)c(NC(=O)c4ccc(O)c(CC=C(C)C)c4)c(=O)oc3c2C)OC1(C)C")
"met"
>>> qualitative_label("O=c1[nH]cc(F)c(=O)[nH]1 + Nc1ccc(C#CCN(C(=O)Cc2ncc(C(F)(F)F)cc2C(F)(F)F)c2ccc(F)cc2)nn1")
"not met"
>>> qualitative_label("COc1cc(C2c3cc4c(cc3C(OC3OC5COC(C)OC5C(O)C3O)C3COC(=O)C23)OCO4)cc(OC)c1O (stereo unspecified) + Cc1cccc(N(C)C(=O)C2C(O)CCN2c2nc(C)cc(C(F)(F)F)c2C#N)c1")
"not met"

All values here come from PubChem BioAssay AID1963829.
